molecular target: recombinant PDK-1 (Homo sapiens (Human), UniProt O15530); test: PDK-1 kinase activity (PDK-1 kinase assay kit, cell-free); settings: inhibiting recombinant PDK-1 kinase activity
Sequence (O15530 whole entry, looked up): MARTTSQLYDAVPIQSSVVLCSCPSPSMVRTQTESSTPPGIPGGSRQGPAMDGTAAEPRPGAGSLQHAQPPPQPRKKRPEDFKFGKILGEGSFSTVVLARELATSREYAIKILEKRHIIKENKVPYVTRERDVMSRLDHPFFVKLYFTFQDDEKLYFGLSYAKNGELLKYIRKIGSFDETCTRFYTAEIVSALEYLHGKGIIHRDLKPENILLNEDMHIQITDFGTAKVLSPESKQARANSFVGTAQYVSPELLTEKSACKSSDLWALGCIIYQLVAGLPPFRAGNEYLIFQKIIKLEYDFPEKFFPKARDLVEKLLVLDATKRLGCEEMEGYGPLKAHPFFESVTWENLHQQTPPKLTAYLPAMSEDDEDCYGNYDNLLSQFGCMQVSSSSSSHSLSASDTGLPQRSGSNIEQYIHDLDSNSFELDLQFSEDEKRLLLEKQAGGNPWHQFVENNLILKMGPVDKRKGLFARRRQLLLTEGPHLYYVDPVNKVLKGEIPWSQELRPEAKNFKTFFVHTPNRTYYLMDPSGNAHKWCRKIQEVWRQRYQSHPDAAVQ
pIC50: −log10 of the molar value.
Readout Name: pIC50

Exam item: Return reported pIC50; argument: NCC(=O)Nc1ccc(-n2nc(C(F)(F)F)cc2-c2ccc3c(ccc4ccccc43)c2)cc1 [OSU-03012]
Marked response: ~5.30
